Target: T1, GST-AIPC PDZ domain 1 (Homo sapiens (Human)), O15018
T1 chain: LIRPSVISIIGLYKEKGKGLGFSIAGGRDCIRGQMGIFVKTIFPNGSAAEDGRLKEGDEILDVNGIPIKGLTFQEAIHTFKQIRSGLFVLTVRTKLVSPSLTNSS
Assay: G' assay; further: key of the grades not given here
So I've got a bunch of binders here, and I need their Classification values.
Give just the number in A450 class; leave the unit off.

Q: Entry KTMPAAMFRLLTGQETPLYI (modifications not checked) [MINT-2] has what Classification?
Ans: 1

Q: Next record, please: LLNVLQRQELGDGLDDEIAV (modifications not checked) [CAPON (carboxyl-terminal PDZ ligand of neuronal nitric oxide synthase) mRNA]
Ans: 1

Q: Next record, please: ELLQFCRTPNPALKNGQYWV (modifications not checked) [CSPG4 (chondroitin sulfae proteoglycan 4, melanoma-associated)]
Ans: 5

Q: Next record, please: SSKSKSSEESQTFFGLYKL (modifications not checked) [Fas Ligand]
Ans: 2

Q: Next record, please: GGGGGSGGGGGSGIESVKI (modifications not checked) [GLUR2 (glutamate receptor 2-modified)]
Ans: 2

Q: Next record, please: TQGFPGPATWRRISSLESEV (modifications not checked) [NMDA Glutamate Receptor 2C (cysteine-free)]
Ans: 3

Q: Next record, please: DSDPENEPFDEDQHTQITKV (modifications not checked) [PTEN]
Ans: 1

Q: Next record, please: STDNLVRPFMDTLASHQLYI (modifications not checked) [presenilin-2]
Ans: 1

Q: Next record, please: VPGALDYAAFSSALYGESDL (modifications not checked) [a-actinin 2]
Ans: 2

Q: Next record, please: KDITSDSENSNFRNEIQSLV (modifications not checked) [CD95]
Ans: 1

Q: Next record, please: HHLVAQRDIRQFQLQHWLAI (modifications not checked) [noradrenaline transporter]
Ans: 2

Q: Next record, please: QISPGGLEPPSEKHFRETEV (modifications not checked) [TAX]
Ans: 1

Q: Next record, please: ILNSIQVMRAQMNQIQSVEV (modifications not checked) [ephrin B2]
Ans: 2

Q: Next record, please: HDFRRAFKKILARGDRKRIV (modifications not checked) [alpha-2A Adrenergic receptor]
Ans: 2

Q: Next record, please: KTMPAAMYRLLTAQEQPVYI (modifications not checked) [MINT-1]
Ans: 1
